# Target Of Assay: αvβ3 integrin (K562/αvβ3+ cells) (Homo sapiens, UniProt P05106+P06756)
# Type: binding
# Condition Info: versus parent LXW7
Where a SMILES comes first, the peptide text is derived from it. Bridges are numbered along the chain shown (N, C = ends). [ ]: non-standard residue; d: D form.
Quantity Name: decrease (loss) of binding affinity / potency relative to LXW7 (fold)
The figure you give is taken to be in fold; do not add the unit.

Exercise: # lookup: decrease (loss) of binding affinity / potency relative to LXW7 of CC(C)[C@H]1NC(=O)[C@@H](CC(=O)O)NC(=O)[C@H](CC(=O)O)NC(=O)CNC(=O)[C@H](CCCNC(=N)N)NC(=O)CNC(=O)[C@H](N)CSSC[C@@H](C(N)=O)NC1=O [peptide 3, cGRGDdvC-NH2] (H-[dC]GRGD[dD][dV]C-NH2; disulfide 1-8 (inferred); N-terminus assumed)
Key: 16
